Here's a roundup of pKi values tested on Carbonic anhydrase 7 (Homo sapiens, UniProt P43166), taken from various published works.
Sequence (P43166 whole entry): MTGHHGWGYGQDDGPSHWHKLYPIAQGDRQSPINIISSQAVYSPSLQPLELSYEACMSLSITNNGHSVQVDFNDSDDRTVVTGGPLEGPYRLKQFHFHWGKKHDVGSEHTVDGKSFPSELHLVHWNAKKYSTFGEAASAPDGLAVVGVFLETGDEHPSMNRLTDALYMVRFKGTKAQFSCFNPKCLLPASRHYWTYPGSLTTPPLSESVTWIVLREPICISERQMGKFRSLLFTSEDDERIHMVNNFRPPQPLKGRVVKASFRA
pKi here is simply -log10 of the concentration when that concentration is written in mol/L.

[[record]]
substance_smiles = "Oc1ccc(/C=C/c2ccc(Cl)cc2Cl)cc1"
assay_result = 5.12

[[record]]
substance_smiles = "NS(=O)(=O)c1ccc(N2CC[C@H](NC(=S)Nc3ccccc3)C2)nc1"
assay_result = 7.94

[[record]]
substance_smiles = "N#Cc1ccc(/C=C/c2ccc(O)cc2)cc1"
assay_result = 5.13

[[record]]
substance_smiles = "NS(=O)(=O)c1ccc(N2CC[C@H](NC(=S)Nc3ccc(F)cc3)C2)nc1"
assay_result = 8.59

[[record]]
substance_smiles = "COc1ccc(OCc2cn(CCCCS(N)(=O)=O)nn2)cc1"
assay_result = 5.28


query: Find the recorded pKi belonging to "NS(=O)(=O)CCCCn1cc(COc2ccc(F)cc2)nn1" and report it.
result: 5.27

query: Would you kindly repeat that for "COc1cccc(NC(=O)NCc2cn(CCCS(N)(=O)=O)nn2)c1" ?
result: 5.35

query: Another compound to check: "COc1ccc(/C=C/c2ccc(O)cc2)cc1"
result: 5.03

query: Now try "COc1ccc(NC(=O)NCc2cn(CCCCS(N)(=O)=O)nn2)c(C)c1" .
result: 5.29

query: Would you mind doing "NS(=O)(=O)CCCCn1cc(CNC(=O)Nc2ccc(C(F)(F)F)cc2)nn1" as well?
result: 5.44

query: Proceed to "COc1cccc(NC(=O)NCc2cn(CCCCS(N)(=O)=O)nn2)c1"
result: 5.41
